These entries and their values trace back to PubChem BioAssay.

I'd be grateful if you could share measured NADPH fluorescence slope for these entries.
- assay_system: Voltage-gated potassium channel subunit beta-2 (Rattus norvegicus)
- protocol_description: enhancers of rat Kvbeta2 NADPH turnover – biochemical, NADPH fluorescence, primary screen (AID 623);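 further: fluorescence intensity change per second fitted from 20 to 320 s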
- measurement_conditions: Recombinant KvBeta, NADPH fluorescence decrease slope, 10 min; at 10 µM; stronger effect = lower value
Answers are plain numbers.

[[record]]
compound = "CS(=O)(=O)N1CCCC(C(=O)N2CCOCC2)C1 (stereo not drawn)"
assay_system = "Voltage-gated potassium channel subunit beta-2 (Rattus norvegicus)"
measured = "6.2e-06"

[[record]]
compound = "CC(C)OC(=O)CSc1nnc(-c2ccc(C(C)(C)C)cc2)n1N"
assay_system = "Voltage-gated potassium channel subunit beta-2 (Rattus norvegicus)"
measured = "-3.9e-05"

[[record]]
compound = "O=C(CSc1ncnc2nc[nH]c12)c1ccc(Cl)cc1"
assay_system = "Voltage-gated potassium channel subunit beta-2 (Rattus norvegicus)"
measured = "-1.4e-05"

[[record]]
compound = "Cc1cccc(NS(=O)(=O)c2cc(C(=O)OCC(=O)Nc3cc(C)on3)ccc2C)c1"
assay_system = "Voltage-gated potassium channel subunit beta-2 (Rattus norvegicus)"
measured = "-3.2e-05"

[[record]]
compound = "COc1ccc(C2c3c(oc4ccccc4c3=O)C(=O)N2Cc2ccncc2)cc1OC (stereo not drawn)"
assay_system = "Voltage-gated potassium channel subunit beta-2 (Rattus norvegicus)"
measured = "-4.9e-05"

[[record]]
compound = "CCOC(=O)c1cc2c(=O)n3cccc(C)c3nc2n(CCOC)c1=NC(=O)c1ccncc1"
assay_system = "Voltage-gated potassium channel subunit beta-2 (Rattus norvegicus)"
measured = "-4.3e-05"

[[record]]
compound = "COc1ccccc1CN1C(=S)SC(C)(C)C1NO (stereo not drawn)"
assay_system = "Voltage-gated potassium channel subunit beta-2 (Rattus norvegicus)"
measured = "-3.5e-05"

[[record]]
compound = "Cc1cc(C)cc(-n2nnc(C(=O)NCc3ccco3)c2N)c1"
assay_system = "Voltage-gated potassium channel subunit beta-2 (Rattus norvegicus)"
measured = "-1.1e-05"

[[record]]
compound = "Cc1cc(O)c(-c2cc(C(=O)Nc3ccc(S(=O)(=O)N4CCOCC4)cc3)[nH]n2)cc1C"
assay_system = "Voltage-gated potassium channel subunit beta-2 (Rattus norvegicus)"
measured = "-1.4e-05"

[[record]]
compound = "Cc1cc(NC(=O)CSc2nc3c(c(=O)n2Cc2ccccc2)SC(C)C3)no1 (stereo not drawn)"
assay_system = "Voltage-gated potassium channel subunit beta-2 (Rattus norvegicus)"
measured = "-6.8e-05"


Parameters: items (list). Returns: NADPH fluorescence slope for each item.
1. COc1cc2c(C#N)c(N3CCOCC3)nc(N)c2c(N)n1
2. COc1ccccc1OCC(=O)Nc1cccc(-c2nc3ccccc3o2)c1
3. CC(C)Cc1nnc(NS(=O)(=O)c2ccc(Cl)cc2)s1

Result block:
-2.1e-06
-1.4e-06
4.8e-06

###

- assay_system: Voltage-gated potassium channel subunit beta-2 (Rattus norvegicus) (UniProt P62483)
- Sequence (P62483 whole entry, looked up): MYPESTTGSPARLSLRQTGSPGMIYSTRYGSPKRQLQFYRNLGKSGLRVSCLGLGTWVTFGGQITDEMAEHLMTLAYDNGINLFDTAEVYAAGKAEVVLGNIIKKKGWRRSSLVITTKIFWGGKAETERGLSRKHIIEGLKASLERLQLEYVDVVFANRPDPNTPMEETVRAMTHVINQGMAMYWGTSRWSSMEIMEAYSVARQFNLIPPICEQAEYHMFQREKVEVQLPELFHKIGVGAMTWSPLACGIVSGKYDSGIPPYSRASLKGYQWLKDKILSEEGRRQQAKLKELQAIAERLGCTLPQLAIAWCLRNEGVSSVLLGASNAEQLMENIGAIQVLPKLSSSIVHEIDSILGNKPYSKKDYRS
- protocol_description: inhibitors of rat Kvbeta2 reductase activity – biochemical, NADPH fluorescence, primary screen (AID 622);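 further: slope of raw intensity against log time taken from 70 to 1610 s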
- measurement_conditions: recombinant KvBeta, 4-cyanobenzaldehyde reduction, at 10 µM, stronger effect = higher value
reported_property: fluorescence slope
One number for each entry.

A selection of reference data follows.
[[record]]
molecule = "Cn1cc(C(=O)c2ccc(F)cc2)cc1-c1nc2ccccc2n1C"
measured = -0.59

[[record]]
molecule = "COc1cc(C2NC(=O)NC(C)=C2C(=O)OCC2CCCO2)ccc1O (stereo unspecified)"
measured = -0.489

[[record]]
molecule = "CC(C)Cn1c(CN2CCCCC2C)nc2c1c(=O)n(C)c(=O)n2C (stereo unspecified)"
measured = -0.537

[[record]]
molecule = "CCN1CCN(C(c2cccs2)C(C)NC(=O)c2ccccc2)CC1 (stereo unspecified)"
measured = -0.59


Parameters: items (list). Returns: fluorescence slope for each item.
1. CCCCc1noc2c1/C(=N\O)CC(c1ccccc1)C2 (stereo unspecified)
2. COc1cc(C(=O)N2CCN(c3cc(Cl)ccc3Cl)CC2)cc(OC)c1OC
3. FC(F)Oc1ccc(-c2csc(Cc3nnc4n3CCCCC4)n2)cc1
4. COC(=O)CN(c1ccc(OC)cc1)S(=O)(=O)c1ccc(OC)c(OC)c1
5. Cn1c(=O)c2c(nc(SCC(=O)NCc3ccco3)n2C)n(C)c1=O

Result block:
[-0.446, -0.425, -0.535, -0.463, -0.611]

Parameters: items (list). Returns: fluorescence slope for each item.
1. O=S(=O)(NC1CCCC1)c1ccc(S(=O)(=O)N2CCc3ccccc32)cc1
2. Cc1ccc(C(=O)N2CCN(C(=O)c3ccc(C)c(C)c3)C(C)C2)cc1C (stereo unspecified)
3. CC(C)c1nnc(NC(=O)CCC(=O)NCc2ccc3c(c2)OCO3)s1
4. COC(=O)CNc1nc(C2CC2)nc2c1nnn2Cc1ccccc1Cl
5. c1cc(-c2nc3ccccc3o2)nc(-c2nc3ccccc3o2)c1
6. Cc1cccc(C2CC(c3ccc(Cl)cc3)Nc3nc(N)nn32)c1 (stereo unspecified)
7. COc1ccccc1NC(=O)N(C1CCCC1)C1CCN(C(C)=O)CC1
8. CCOC(=O)N1CCC(N(CCCOC)C(=O)Nc2ccc(CC)cc2)CC1

Result block:
[-0.589, -0.264, -0.404, -0.479, -0.39, -0.525, -0.582, -0.531]

Parameters: items (list). Returns: fluorescence slope for each item.
1. Nn1cnnc1SCC(=O)Nc1ccc2c(c1)OCCO2
2. CCC(=O)Nc1cc2nn(-c3ccccc3)nc2cc1Cl
3. Clc1cccc(N2CCN(Cc3nc(-c4ccccc4)no3)CC2)c1

Result block:
1. -0.351
2. -0.413
3. -0.541

Query block: // returns reported fluorescence slope for input COc1ccc(C2CC(c3ccccc3)Nc3nc(NC(=O)c4cccs4)nn32)cc1 (stereo unspecified)
Result block: -0.372

###

- protocol_description: reduction of polyQ htt aggregates in cells – imaging, exon1htt(103Q)mCFP cells, high-content imaging, primary screen (AID 483);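 further: compound exposure lasted 3 days before fixation; percent of the per-plate median nuclei count of sample wells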
- measurement_conditions: exon1htt(103Q)mCFP cell line, aggregate imaging, at 2 µM; measured here: cell count, toxicity
Hi! Could you tag entries with nuclei count below 90% as t, and those at or above as f? Much appreciated.

Sample answers from the record:
[[record]]
molecule = "O=C1C(Cl)=C(N2CCCCC2)C(=O)N1c1ccccc1Cl"
category_label = "f"

[[record]]
molecule = "COc1ccc(S(=O)(=O)N(CC(=O)N2CCN(c3ccccc3OC)CC2)c2ccccc2)cc1"
category_label = "f"

[[record]]
molecule = "CCOc1ncccc1C(=O)OCC(=O)N1CC(=O)Nc2ccccc21"
category_label = "f"


Here's the next entry for you.
Query block: API: query returns whether the molecule falls strictly under 90% in nuclei count. Query: "O=C(CSc1nc(-c2ccco2)cc(C(F)(F)F)n1)NCCCn1ccnc1"
Result block: f

###

- assay_system: Voltage-gated potassium channel subunit beta-2 (Rattus norvegicus)
- protocol_description: inhibitors of rat Kvbeta2 reductase activity – biochemical, NADPH fluorescence, primary screen (AID 622);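 further: slope of raw intensity against log time taken from 70 to 1610 s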
- measurement_conditions: recombinant KvBeta, 4-cyanobenzaldehyde reduction, at 10 µM, stronger effect = higher value
reported_property: fluorescence slope
Give bare numbers.

[[record]]
compound = "COc1ccc(NC(=O)CSc2nc3c(c(=O)n2-c2ccc(F)cc2)SCC3)cc1"
assay_system = "Voltage-gated potassium channel subunit beta-2 (Rattus norvegicus)"
measured = -0.541

[[record]]
compound = "Cc1ccccc1Nc1nc(N)nc(CSCc2c(C)noc2C)n1"
assay_system = "Voltage-gated potassium channel subunit beta-2 (Rattus norvegicus)"
measured = -0.361

[[record]]
compound = "COc1c(S(=O)(=O)n2nc(C)cc2C)ccc(Cl)c1Cl"
assay_system = "Voltage-gated potassium channel subunit beta-2 (Rattus norvegicus)"
measured = -0.434

[[record]]
compound = "CC(NC(=O)COc1ccccc1)C(=O)NC1=NCCS1 (stereo unspecified)"
assay_system = "Voltage-gated potassium channel subunit beta-2 (Rattus norvegicus)"
measured = -0.35


Parameters: items (list). Returns: fluorescence slope for each item.
1. O=C(NCc1cccnc1)C1c2ccccc2C(=O)N1Cc1ccco1 (stereo unspecified)
2. CC1CN(CC(O)COc2ccccc2C(C)(C)C)CC(C)O1 (stereo unspecified)
3. Cc1ccccc1-c1nc(CN2CCC(C(=O)NC3CCN(Cc4ccccc4)CC3)CC2)c(C)o1
4. CC(C)C(OC(=O)c1ccco1)C(=O)NCc1ccccc1 (stereo unspecified)
5. CCCOc1ccccc1C1CC(=O)Nc2cc3c(cc21)OCCO3 (stereo unspecified)
6. C=CCN=C1SCC(=O)N1S(=O)(=O)c1ccc(C)cc1
7. Cc1ccc(S(=O)(=O)N2CCC(C(=O)NCCN3CCCCCC3)CC2)cc1
8. CS(=O)(=O)N(Cc1nc2sc3c(c2c(=O)[nH]1)CCCC3)C1CCCCC1

Result block:
1: -0.595; 2: -0.509; 3: -0.561; 4: -0.443; 5: -0.628; 6: -0.364; 7: -0.456; 8: -0.612

Parameters: items (list). Returns: fluorescence slope for each item.
1. CCn1cc(C2Nc3ccccc3C(=O)N2O)c(C)n1 (stereo unspecified)
2. O=C(Nc1ccccc1N1CCCCC1)c1ncoc1-c1ccc(F)cc1

Result block:
1. -0.301
2. -0.424

Parameters: items (list). Returns: fluorescence slope for each item.
1. CN(Cc1ccco1)C(=O)Cn1c(=O)oc2cc(S(=O)(=O)NCc3ccccc3)ccc21
2. COc1ccc(NC(=O)CCc2ccccc2)cc1NC(=O)c1ccco1
3. CSc1ccc(-c2nc(CSCC(=O)N3CCOCC3)c(C)o2)cc1
4. COCCn1nnnc1C(c1ccccc1OC)N1CCc2ccccc2C1 (stereo unspecified)
5. Cc1sc(NC(=O)CSc2nc(N)n(CC(=O)c3ccccc3)n2)c(C#N)c1C
6. Cc1cc(C(=O)N2CCN(C/C=C/c3ccccc3)CC2)no1
7. Cc1ccc(C(C(=O)NC(C)(C)C)N(C(=O)c2csnn2)c2cccc(F)c2)o1 (stereo unspecified)
8. COc1cc(C)c(-c2cc(C(=O)O)c(C)o2)cc1C(C)C

Result block:
[-0.55, -0.504, -0.523, -0.322, -0.612, -0.465, -0.492, -0.416]
